The measurements presented in this section are drawn from patent US7601713B2.

# system.tested: Axl kinase (Homo sapiens, UniProt P30530)
# Construct: endogenous in cells
# Sequence (P30530 26-894): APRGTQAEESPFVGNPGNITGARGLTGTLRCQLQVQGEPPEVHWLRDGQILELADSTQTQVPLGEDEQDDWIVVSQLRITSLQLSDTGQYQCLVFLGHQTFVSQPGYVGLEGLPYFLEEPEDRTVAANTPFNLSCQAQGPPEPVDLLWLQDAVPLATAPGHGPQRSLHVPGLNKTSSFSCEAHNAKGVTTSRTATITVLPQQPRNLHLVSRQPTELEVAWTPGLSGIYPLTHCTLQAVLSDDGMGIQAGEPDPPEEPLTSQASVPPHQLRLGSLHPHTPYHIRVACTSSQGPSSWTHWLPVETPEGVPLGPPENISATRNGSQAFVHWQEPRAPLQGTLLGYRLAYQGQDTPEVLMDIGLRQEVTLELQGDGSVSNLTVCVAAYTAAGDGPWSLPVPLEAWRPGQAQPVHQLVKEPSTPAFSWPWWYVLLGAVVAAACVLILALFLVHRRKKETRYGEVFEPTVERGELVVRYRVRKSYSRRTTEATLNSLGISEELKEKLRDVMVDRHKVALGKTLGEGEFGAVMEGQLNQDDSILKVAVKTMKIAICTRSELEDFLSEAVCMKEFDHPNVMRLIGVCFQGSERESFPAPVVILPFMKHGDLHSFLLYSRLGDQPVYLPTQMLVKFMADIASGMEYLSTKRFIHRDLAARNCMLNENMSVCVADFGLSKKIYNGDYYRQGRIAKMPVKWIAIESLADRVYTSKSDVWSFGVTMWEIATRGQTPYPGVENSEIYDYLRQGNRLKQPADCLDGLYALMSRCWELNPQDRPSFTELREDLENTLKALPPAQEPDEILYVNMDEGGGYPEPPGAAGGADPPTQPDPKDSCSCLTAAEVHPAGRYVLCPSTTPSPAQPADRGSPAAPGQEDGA
# assay.comment: Phospho-Akt in-cell Western assay (Axl antibody cross-linking, Hela cells)
# cond: phospho-Akt readout, read-out: IC50, inhibition of Axl kinase
measured.quantity: IC50

>  <compound>
N#Cc1ccc(-c2ccc(Nc3nc(NC4C5C=CC(C5)C4C(N)=O)c4cc[nH]c4n3)cc2)cc1 (racemic) [Compound 220]

>  <IC50>
> 10 µM

$$$$

Please give the measured IC50 for this compound: NC(=O)C1C2C=CC(C2)C1Nc1nc(Nc2ccc(OCCN3CCCC3)cc2)nc2c1CCC2 (stereo not shown) [Compound 185]
< 5 µM

Please give the measured IC50 for this compound: Cc1csc2c(NC3C4C=CC(C4)C3C(N)=O)nc(Nc3ccc(OCCN4CCCC4)cc3)nc12 (racemic) [Compound 240]
< 10 µM

Please give the measured IC50 for this compound: NC(=O)C1C2C=CC(C2)C1Nc1nc(Nc2cccc(CN3CCOCC3)c2)nc2[nH]ccc12 (racemic) [Compound 221]
< 5 µM

Please give the measured IC50 for this compound: CCOC(=O)N1CCN(c2ccc(Nc3nc(N[C@@H]4C5C=CC(C5)[C@@H]4C(N)=O)c4sccc4n3)cc2F)CC1 (stereo partly shown) [Compound 208]
> 10 µM

Please give the measured IC50 for this compound: CONC(=O)Cc1cccc(Nc2nc(NC3C4C=CC(C4)C3C(N)=O)c3nc[nH]c3n2)c1 (racemic) [Compound 230]
> 10 µM

Please give the measured IC50 for this compound: NC(=O)C1C2C=CC(C2)C1Nc1nc(Nc2ccc(OCCN3CCCC3)cc2)nc2[nH]cnc12 (racemic) [Compound 234]
< 5 µM
